- MEASUREMENT DESCRIPTION: Inhibition of CREB kinase-inducible domain/CREB binding protein KID-interacting domain interaction after 20 to 24 hrs by luciferase reporter gene assay
RECORDED ENDPOINT: IC50

Some entries whose results are on file:
Cn1nc(Nc2ccc(Cl)cc2)c2cc3ccccc3cc21	5.19 µM
O=c1oc2cc3ccccc3cc2c(=O)n1-c1ccc(Cl)cc1	> 50 µM
O=c1[nH]c2cc3ccccc3cc2c(=O)n1-c1ccc(Cl)cc1	> 50 µM
O=C(Nc1ccc(Cl)cc1)c1cc2ccccc2cc1O	2.9 µM

Give IC50 for each listed item.
1. Clc1ccc(Nc2noc3cc4ccccc4cc23)cc1
2. Clc1ccc(Nc2ncnc3cc4ccccc4cc23)cc1

1. > 50 µM
2. 9.46 µM

Input Clc1ccc(Nc2n[nH]c3cc4ccccc4cc23)cc1 , output reported IC50.
8.74 µM
